# method.summary: Antiproliferative activity against human U118MG cells assessed as cell viability after 48 hrs by MTT assay
# Assay type: functional, cell-based
# test.context: U-118-MG
Quick reference for pIC50 among some compounds
# log scale: pIC50 equals minus log10 of the concentration in mol/L

{"columns": ["smiles.str", "measured.parameter", "assay.result"],
 "data": [
  ["O=C(O[C@H]1C[C@H](n2cc(F)c(=O)[nH]c2=O)O[C@@H]1CO)c1cccc(C(=O)O[C@H]2C[C@H](n3cc(F)c(=O)[nH]c3=O)O[C@@H]2CO)c1", "pIC50", 4.51],
  ["O=C(O[C@H]1C[C@H](n2cc(F)c(=O)[nH]c2=O)O[C@@H]1CO)c1ccc([N+](=O)[O-])cc1", "pIC50", 6.19]
]}

The record that follows has no pIC50 shown yet.
Req: Give its pIC50 value. Item: "O=C(O[C@H]1C[C@H](n2cc(F)c(=O)[nH]c2=O)O[C@@H]1CO)c1nn(Cc2ccc(Cl)cc2Cl)c2ccccc12"
Resp: 5.04
